List of pIC50 values.
Biological target: IgE-Tb binding to soluble IgE receptor FcεR1α (Y131A mutation) (Homo sapiens, UniProt P01854, N146Q/N252Q)
Sequence (P01854 whole entry N146Q/N252Q, looked up): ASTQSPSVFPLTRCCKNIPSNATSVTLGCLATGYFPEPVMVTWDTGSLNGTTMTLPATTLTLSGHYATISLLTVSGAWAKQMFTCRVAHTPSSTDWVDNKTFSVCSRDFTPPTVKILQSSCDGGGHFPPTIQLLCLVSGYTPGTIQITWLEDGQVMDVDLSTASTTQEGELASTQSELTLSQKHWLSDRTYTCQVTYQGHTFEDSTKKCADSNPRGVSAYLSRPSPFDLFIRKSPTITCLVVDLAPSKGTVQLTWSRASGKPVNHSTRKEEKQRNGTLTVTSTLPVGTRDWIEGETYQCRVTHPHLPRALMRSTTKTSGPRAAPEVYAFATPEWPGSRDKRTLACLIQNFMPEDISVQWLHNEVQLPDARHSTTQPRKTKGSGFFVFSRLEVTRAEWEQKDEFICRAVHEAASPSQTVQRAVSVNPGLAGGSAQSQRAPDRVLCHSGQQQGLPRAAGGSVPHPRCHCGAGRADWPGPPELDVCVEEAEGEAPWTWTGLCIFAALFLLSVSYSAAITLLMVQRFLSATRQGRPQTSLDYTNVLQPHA
Assay: In vitro FRET assay: inhibition of binding of IgE-Tb to receptor FcεR1α-Y131A-AF488
Details: read-out: FRET IC50 range
pIC50: −log10 of the molar value.
measuredProperty: pIC50

| compound | measurement |
| --- | --- |
| Cn1ncc2c(NC3CCc4cc(S(=O)(=O)NCC(C)(C)F)c5cc(C6CC6)ncc5c43)cncc21 (stereo not shown) [Example 43] | 5.70 to 7.00 |
| O=S(=O)(NC1CC(F)(F)C1)c1cc2c(c3cnc(C4CC4)cc13)CCC2n1cnnc1NCC1CC1 (stereo not shown) [Example 81] | 5.70 to 7.00 |
| Cc1nnc(-c2ccc(NC3CCc4c3cc(S(=O)(=O)NCC(C)(C)F)c3cc(C5CC5)ncc43)cn2)o1 (stereo not shown) [Example 42] | 8.00 to 9.00 |
| CC(C)(F)CNS(=O)(=O)c1cc2c(c3cnc(C4CC4)cc13)CCC2N1CCC[C@@H](N)C1 (stereo partly shown) [Example 57] | 5.70 to 7.00 |
| CC(C)CNS(=O)(=O)c1cc2c(c3cnc(C4CC4)cc13)CCC2Nc1c(Nc2cccnc2)c(=O)c1=O (stereo not shown) [Example 84] | 7.30 to 8.00 |
| CC(C)CNS(=O)(=O)c1cc2c(c3cnc(C4CC4)cc13)CCC2NS(C)(=O)=O (stereo not shown) [Example 83] | 5.70 to 7.00 |
| CC(C)(F)CNS(=O)(=O)c1cc2c(c3cnc(C4CC4)cc13)CCC2NCc1cc2ccccc2[nH]1 (stereo not shown) [Example 61] | 5.70 to 7.00 |

====

List of IC50 values.
Target: IgE-Tb binding to soluble IgE receptor FcεR1α (Y131A mutation) (Homo sapiens, UniProt P01854, N146Q/N252Q)
Assay: In vitro FRET assay: inhibition of binding of IgE-Tb to receptor FcεR1α-Y131A-AF488
Conditions: read-out: FRET IC50 range
measuredProperty: IC50

| compound | measurement |
| --- | --- |
| CC1CC1C(=O)NC1CCc2cc(S(=O)(=O)NCC(C)(C)F)c3cc(C4CC4)ncc3c21 (stereo not drawn) | 0.1 to 2 µM |
| Cc1cc(-n2cnnc2NC2CCc3c2cc(S(=O)(=O)NCC(C)C)c2cc(C4CC4)ncc32)n(C)n1 (stereo not drawn) | 0.1 to 2 µM |
| CC(C)CNS(=O)(=O)c1cc2c(c3cnc(C4CC4)cc13)CCC2(C)O (stereo not drawn) | 0.1 to 2 µM |
| Cc1cc(NC(=S)NC2CCc3c2cc(S(=O)(=O)NCC(C)(C)F)c2cc(C4CC4)nnc32)n(C)n1 (stereo not drawn) | 0.01 to 0.05 µM |
| CCNc1c(N[C@@H]2CCc3cc(S(=O)(=O)NCC(C)C)c4cc(C5CC5)ncc4c32)c(=O)c1=O (single isomer, unassigned) | 0.01 to 0.05 µM |
| CC(C)(F)CNS(=O)(=O)c1cc2c(c3cnc(C4CC4)cc13)[C@H](NC(=O)c1c[nH]c3cc(F)ccc13)CC2 (single isomer, unassigned) | 0.1 to 2 µM |
| Cc1cc(C(=O)NC2CN(C3CCc4c3cc(S(=O)(=O)NCC(C)(C)F)c3cc(C5CC5)ncc43)C2)n(C)n1 (stereo not drawn) | 0.1 to 2 µM |
| CC(C)CNS(=O)(=O)c1cc2c(c3cnc(C4CC4)cc13)C(Nc1c(Nc3cccnc3)c(=O)c1=O)CC2 (stereo not drawn) | 0.05 to 0.1 µM |
| COc1cncc(NC2CCc3cc(S(=O)(=O)NCC(C)(C)F)c4cc(C5CC5)ncc4c32)c1 (stereo not drawn) | 0.01 to 0.05 µM |
| CC(C)CNS(=O)(=O)c1cc2c(c3cnc(C4CC4)cc13)C(Nc1nncn1-c1cccc3c1nnn3C)CC2 (stereo not drawn) | 0.05 to 0.1 µM |
| Cc1cc(-n2cnnc2NC2CCc3c2cc(S(=O)(=O)NCC(C)(C)F)c2cc(C4CC4)nnc32)n(C)n1 (stereo not drawn) | 0.01 to 0.05 µM |
| Cc1cc(Nc2nncn2[C@H]2CCc3c2cc(S(=O)(=O)NCC(C)(C)F)c2cc(C4CC4)ncc32)n(C)n1 (single isomer, unassigned) | 0.05 to 0.1 µM |
| CC(C)CNS(=O)(=O)c1cc2c(c3cnc(C4CC4)cc13)C(NC(=O)OCc1ccccc1)CC2 (stereo not drawn) | 0.1 to 2 µM |
| [2H]C([2H])(NS(=O)(=O)c1cc2c(c3cnc(C4CC4)cc13)CCC2n1cnnc1NCC1CC1)C(C)C (stereo not drawn) | 0.01 to 0.05 µM |
| CC(C)CNS(=O)(=O)c1cc2c(c3cnc(C4CC4)cc13)C(F)CC2 (stereo not drawn) | 0.1 to 2 µM |
